The values you see were collected from the NIST ThermoML archive (doi:10.1021/je100361s).

settings: 313.15 K; 101.33 kPa; Liquid; Shanghai Precision & Scientific Instrument Co., LTD (DDS-307)
# maps each entry to its electrical conductivity
Observable: electrical conductivity

{"columns": ["Smiles Code", "Observable", "Recorded Measurement"],
 "data": [
  ["CC(C)O", "electrical conductivity", "8.08e-05 S/m"],
  ["O", "electrical conductivity", "0.00349 S/m"],
  ["CCCCO", "electrical conductivity", "6.9e-05 S/m"],
  ["CCO", "electrical conductivity", "0.000644 S/m"]
]}

====

settings: 303.15 K; 101.33 kPa; Liquid; Shanghai Precision & Scientific Instrument Co., LTD (DDS-307)
Parameter electrical conductivity: see the listing below.
Observable: electrical conductivity (S/m)

{"columns": ["Compound", "Value Units", "Recorded Measurement"],
 "data": [
  ["O [water]", "S/m", 0.00287],
  ["CC(C)O [propan-2-ol]", "S/m", "7e-05"],
  ["CCO [ethanol]", "S/m", 0.000504],
  ["CCCCO [butan-1-ol]", "S/m", "5.55e-05"]
]}

====

Measured electrical conductivity values are reported for all entries that follow.
settings: 318.15 K; 101.33 kPa; Liquid; Shanghai Precision & Scientific Instrument Co., LTD (DDS-307)

{"columns": ["Molecule", "electrical conductivity (S/m)"],
 "data": [
  ["CCO [ethanol]", 0.000711],
  ["CC(C)O [propan-2-ol]", "8.43e-05"],
  ["O [water]", 0.00375],
  ["CCCCO [butan-1-ol]", "8e-05"]
]}

====

details: 308.15 K; 101.33 kPa; Liquid; Shanghai Precision & Scientific Instrument Co., LTD (DDS-307)
Property: electrical conductivity; scope: individual molecules
Observable: electrical conductivity

{"columns": ["Molecule", "Observable", "Recorded Measurement"],
 "data": [
  ["CCCCO [butan-1-ol]", "electrical conductivity", "6.58e-05 S/m"],
  ["CCO [ethanol]", "electrical conductivity", "0.000584 S/m"],
  ["CC(C)O [propan-2-ol]", "electrical conductivity", "7.5e-05 S/m"],
  ["O [water]", "electrical conductivity", "0.00323 S/m"]
]}
